Origin of measurements: the supplement of paper PMC10065799

molecular target: EPHB1 (UniProt P54762); assay: phosphorylation enrichment, bacterial display (enrichment ratio); higher = better substrate or ligand; peptides without Tyr show the background
Sequence (P54762 whole entry, looked up): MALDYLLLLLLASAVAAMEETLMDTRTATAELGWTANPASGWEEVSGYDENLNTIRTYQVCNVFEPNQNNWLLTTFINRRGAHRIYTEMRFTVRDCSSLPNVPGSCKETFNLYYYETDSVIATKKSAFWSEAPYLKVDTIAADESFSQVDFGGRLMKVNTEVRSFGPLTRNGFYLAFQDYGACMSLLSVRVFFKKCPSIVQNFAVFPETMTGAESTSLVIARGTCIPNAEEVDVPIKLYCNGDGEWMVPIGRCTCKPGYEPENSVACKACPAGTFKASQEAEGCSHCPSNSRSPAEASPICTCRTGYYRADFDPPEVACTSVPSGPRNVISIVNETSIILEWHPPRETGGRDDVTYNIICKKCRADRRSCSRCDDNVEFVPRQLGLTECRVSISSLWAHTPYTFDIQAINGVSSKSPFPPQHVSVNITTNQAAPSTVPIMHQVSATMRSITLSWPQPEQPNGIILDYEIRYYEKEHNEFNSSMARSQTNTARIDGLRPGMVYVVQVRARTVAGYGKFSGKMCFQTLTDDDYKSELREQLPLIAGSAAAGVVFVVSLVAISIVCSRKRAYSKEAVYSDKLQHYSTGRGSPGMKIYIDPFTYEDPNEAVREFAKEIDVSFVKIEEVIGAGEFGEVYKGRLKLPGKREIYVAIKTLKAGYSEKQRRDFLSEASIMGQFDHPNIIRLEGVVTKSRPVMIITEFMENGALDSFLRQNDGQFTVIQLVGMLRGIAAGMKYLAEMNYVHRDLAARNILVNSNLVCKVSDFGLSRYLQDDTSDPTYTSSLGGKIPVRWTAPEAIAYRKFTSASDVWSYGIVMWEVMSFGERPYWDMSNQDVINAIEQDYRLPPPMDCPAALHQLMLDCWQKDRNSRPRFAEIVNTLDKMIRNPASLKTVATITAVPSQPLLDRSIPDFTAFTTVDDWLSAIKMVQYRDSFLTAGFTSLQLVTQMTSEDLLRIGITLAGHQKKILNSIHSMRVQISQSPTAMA
# cutoff 0.7 applies to phosphorylation enrichment; >= gives 1, < gives -1

### Prompt Assess whether reported phosphorylation enrichment for HFPFQCHRQLF [F12_Y53_Y53C_YF] sits at 0.7 or higher.
### Response 1

### Prompt Is phosphorylation enrichment for ETMNKYDLSGR [MYEF2_Y164] at or above 0.7?
### Response -1

### Prompt # bool: phosphorylation enrichment of MSRDVYSTDCF [NTRK2_Y702_Y706C_YF] >= 0.7
### Response 1

New cases:
### Prompt Can CQASLYPSNHD [LRIG1_Y996_G993A] be said to have phosphorylation enrichment at or above 0.7?
### Response 1

### Prompt Is it the case that QRKPSYNQLPS [BRCA2_Y71_A75P] has phosphorylation enrichment reaching or exceeding 0.7?
### Response -1

### Prompt Reported phosphorylation enrichment reaches at least 0.7 for MGGSVYFSYPD [HIKESHI_Y55] ?
### Response 1

---

For each of the sequences below, state its phosphorylation enrichment.
molecular target: FGFR1 (UniProt P11362); experiment: phosphorylation enrichment, bacterial display (enrichment ratio); higher = better substrate or ligand; peptides without Tyr show the background
Sequence (P11362 whole entry, looked up): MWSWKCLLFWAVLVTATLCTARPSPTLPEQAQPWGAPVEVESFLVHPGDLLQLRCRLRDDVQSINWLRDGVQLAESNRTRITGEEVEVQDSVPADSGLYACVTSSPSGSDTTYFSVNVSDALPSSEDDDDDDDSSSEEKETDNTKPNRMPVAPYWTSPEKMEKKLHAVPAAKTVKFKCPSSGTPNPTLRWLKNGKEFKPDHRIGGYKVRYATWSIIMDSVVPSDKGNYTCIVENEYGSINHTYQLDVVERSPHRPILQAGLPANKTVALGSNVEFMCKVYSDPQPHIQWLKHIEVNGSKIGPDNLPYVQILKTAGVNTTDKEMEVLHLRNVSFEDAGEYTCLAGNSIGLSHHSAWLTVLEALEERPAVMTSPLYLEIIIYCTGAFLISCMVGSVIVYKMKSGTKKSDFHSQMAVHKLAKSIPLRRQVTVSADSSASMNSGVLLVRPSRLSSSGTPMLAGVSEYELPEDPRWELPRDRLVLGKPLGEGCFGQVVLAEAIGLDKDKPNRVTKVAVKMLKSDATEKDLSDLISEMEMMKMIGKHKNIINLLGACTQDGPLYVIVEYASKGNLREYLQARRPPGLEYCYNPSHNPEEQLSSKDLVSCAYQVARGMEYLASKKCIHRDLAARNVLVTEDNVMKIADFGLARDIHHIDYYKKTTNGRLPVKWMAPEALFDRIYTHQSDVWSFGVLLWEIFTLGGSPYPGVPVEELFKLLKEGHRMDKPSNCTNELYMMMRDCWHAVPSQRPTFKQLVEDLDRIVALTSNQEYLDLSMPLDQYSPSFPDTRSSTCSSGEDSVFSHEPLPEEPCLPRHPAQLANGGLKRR

Previously resolved entries follow.
### Prompt For the sequence shown here, FADIAYNFRQG [PAH_Y166_H170Q_YF] , give the reported phosphorylation enrichment.
### Response 0.398

### Prompt Which value of phosphorylation enrichment has been reported for CTNIHYNFMCN [TP53_Y234_T231N_YF] in the records?
### Response 0.554

### Prompt phosphorylation enrichment for MSNFACVKREV [SCN1A_Y1694_Y1694C] ?
### Response 0.486

Please give phosphorylation enrichment, item by item, for the list that follows.
1. RLYARYFQGDL [PDK3_Y337]
2. KQVEQYMSFHK [HCN1_Y417]
3. LITTLYIGFLD [KCNQ1_Y267_G272D]
4. LNAGAYSKVVE [PPT1_Y172_Q177E]
5. EKMWSYTKSAE [GRIA3_Y705_M706T]
6. PDKRIYQFTAA [SKAP2_Y197]

### Response
[0.684, 0.49, 0.777, 0.436, 0.419, 0.476]

Parameter requested: phosphorylation enrichment. Apply to each item below.
1. YKPGFYNLKEK [LAMA1_Y490_C485Y]
2. REESTYLPLTS [ICAM3_Y527]
3. VNKIFHPDFIV [LIG3_Y768_Y768H_YF]
4. KRIETYFSKNF [PLP1_Y50_L46R_YF]

### Response
1: 0.352; 2: 1.19; 3: 0.419; 4: 0.516

# map each sequence to its phosphorylation enrichment
1. PVQAAYQKVEA [HBB_Y131_V135E]
2. EKKKFYDTKIE [CASP5_Y104_YF]
3. EVKAQYEDIAQ [KRT1_Y358]
4. NGEDPYAGSTD [XRCC1_Y515]

### Response
1: 0.709; 2: 0.342; 3: 0.593; 4: 0.646

---

target: FGFR1 (UniProt P11362); test: phosphorylation enrichment, bacterial display (enrichment ratio); higher = better substrate or ligand; peptides without Tyr show the background
Assay readout: phosphorylation enrichment

Use the examples below as a reference point.
### Prompt Reported phosphorylation enrichment, sequence ILGTFYETGSI [PAX2_Y73_R71T_YF] : ____
### Response 0.582

### Prompt Which value of phosphorylation enrichment has been reported for WKEREYEVVRD [CPS1_Y634_I632R] in the records?
### Response 0.554

Return reported phosphorylation enrichment values for all items listed beneath this line.
1. LSVEIHDRREY [ITGB7_Y753_Y753H]
2. SNNYIYKTLGV [FAM83B_Y639]
3. LATINYPFEKG [NDUFS8_Y84_P79L]
4. HGEAVYSRDCV [XPC_Y676_R671H]
5. IYRASYVPFAA [RBM47_Y541_G538R]

### Response
[0.414, 0.484, 0.503, 0.621, 0.562]

// each sequence listed below needs its phosphorylation enrichment
1. ENRKYYMDLKE [PURA_Y156]
2. GKSHIYFWTLE [EML2_Y230]
3. KKLEVYQSIAD [MYBPC3_Y548]

### Response
1. 0.474
2. 0.8
3. 0.499

Hello, I would appreciate it if you could give phosphorylation enrichment for each entry below.
1. KILGRYYETGS [PAX2_Y72]
2. RTESQYQENRG [LRCH3_Y354_R350T]
3. VQEDIYDEFVE [ALDH2_Y332]
4. MCITQYERESQ [PRNP_Y218]

### Response
0.507
0.499
0.459
0.491

Working through the 3 sequences below one at a time, give phosphorylation enrichment for each.
1. DFFDLYGGQKF [PTPN11_Y66_E69Q_YF]
2. KRISCYEASYQ [PFKFB3_Y194]
3. NFATLHLKIFH [PDE6B_Y219_Y219H_YF]

### Response
1: 0.609; 2: 0.447; 3: 0.652

// input: 8 sequences below; output: phosphorylation enrichment for each
1. GSSEDYLHMVH [NIPBL_Y247]
2. RTLSEYARPHV [RERE_Y1259]
3. WQQQSYLFSGI [CTNNB1_Y30_D32Y_YF]
4. NNRVFYGNSDC [RS1_Y177_R182C]
5. DERQPYVHMNG [IGF1R_Y1346_A1347V]
6. VTPVMYTFDEF [COL10A1_Y623_G618V_YF]
7. QQLDKYQELLD [LMNA_Y359_E358K]
8. SEDANYKRVSC [TTC3_Y1288]

### Response
1: 1.07; 2: 0.606; 3: 0.473; 4: 0.467; 5: 0.592; 6: 0.591; 7: 0.715; 8: 0.418

For each of the items listed, what is its phosphorylation enrichment?
1. ADCRFYTFPQM [GAMT_Y223_A224T_YF]
2. KICDWYQRQRP [KRT14_Y151_R148C]
3. RPQDGYRIVQH [PTPRT_Y1329]
4. SSFPDYLAAVD [GLB1_Y154_D151Y_YF]

### Response
[0.584, 0.466, 0.557, 0.676]

---

biological target: c-Src SH2; assay: SH2 binding enrichment of the phosphorylated peptide, bacterial display (enrichment ratio); higher = better substrate or ligand; peptides without Tyr show the background;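 also: peptide library displayed on the E. coli surface as eCPX fusions, selected cells deep-sequenced, score is each peptide's frequency after selection divided by its frequency in the input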
Label True when SH2 binding enrichment >= 0.7; otherwise False.

Below, 5 sequences whose answers are already recorded.
### Prompt In plain terms: is recorded SH2 binding enrichment at least 0.7 for RNDLDYMDSRR [GAA_Y407_W402R] ?
### Response False

### Prompt Check the entry AFLEDYFTSTK [SRC_Y522_E527K] : does SH2 binding enrichment equal or exceed 0.7?
### Response False

### Prompt Determine whether this sequence has SH2 binding enrichment no lower than 0.7: AAVLNYKAWRD [GRIN2A_Y737_G740W]
### Response False

### Prompt Say whether FSQQTYFRVSN [ABCD1_Y180_YF] shows SH2 binding enrichment of 0.7 or more.
### Response True

### Prompt Is reported SH2 binding enrichment greater than or equal to 0.7 here: SGIFQYNIAKF [FOXL2_Y83_I84N_YF]
### Response True

Others:
### Prompt Determine whether this sequence has SH2 binding enrichment no lower than 0.7: SLEKSYELPDG [ACTA1_Y242]
### Response True

---

Can you tell me phosphorylation enrichment for the items I'm about to list?
target: Fes (UniProt P07332); experiment: phosphorylation enrichment, bacterial display (enrichment ratio); higher = better substrate or ligand; peptides without Tyr show the background
Sequence (P07332 whole entry, looked up): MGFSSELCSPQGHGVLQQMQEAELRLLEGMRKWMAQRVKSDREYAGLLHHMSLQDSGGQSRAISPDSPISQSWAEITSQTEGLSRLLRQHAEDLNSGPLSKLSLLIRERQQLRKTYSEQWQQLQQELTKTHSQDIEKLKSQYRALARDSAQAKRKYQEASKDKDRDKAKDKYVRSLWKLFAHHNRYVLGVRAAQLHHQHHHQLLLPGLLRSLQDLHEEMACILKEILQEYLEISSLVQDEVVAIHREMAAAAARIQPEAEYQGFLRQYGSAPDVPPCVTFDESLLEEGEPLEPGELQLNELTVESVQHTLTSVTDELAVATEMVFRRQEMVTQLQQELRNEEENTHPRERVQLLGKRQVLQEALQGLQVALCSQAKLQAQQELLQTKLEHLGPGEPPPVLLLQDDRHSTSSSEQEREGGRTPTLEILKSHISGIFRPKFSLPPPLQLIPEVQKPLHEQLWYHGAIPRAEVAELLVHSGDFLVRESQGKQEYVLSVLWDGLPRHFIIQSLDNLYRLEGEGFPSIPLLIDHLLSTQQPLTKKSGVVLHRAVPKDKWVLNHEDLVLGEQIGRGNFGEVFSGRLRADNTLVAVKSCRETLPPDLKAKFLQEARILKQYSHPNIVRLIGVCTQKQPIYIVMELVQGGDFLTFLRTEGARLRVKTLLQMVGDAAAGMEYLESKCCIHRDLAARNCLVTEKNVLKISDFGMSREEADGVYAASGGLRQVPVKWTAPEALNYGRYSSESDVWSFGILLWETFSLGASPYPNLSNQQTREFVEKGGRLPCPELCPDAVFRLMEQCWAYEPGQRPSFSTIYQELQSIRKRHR
Numbers only.

Give phosphorylation enrichment for each listed item.
1. KTDVRYRSLGG [DYSF_Y1858_H1857R]
2. KVPELYEIHKE [BCR_Y554]
3. SDVWSYGVTMW [ZAP70_Y525]

### Response
1: 0.472; 2: 1.08; 3: 1.39

// for each sequence in input: emit phosphorylation enrichment
1. PVQAAYQKVEA [HBB_Y131_V135E]
2. NQNIGYKLGHR [KCNN3_Y268]
3. GDKENYGLPQP [BUB1_Y538_N534D]
4. LEIETDRRLLD [KRT12_Y429_Y429D]
5. ARMTNYGLPRF [TSPAN12_Y138_YF]
6. LLREWYLQDPF [SIX3_Y225_YF]

### Response
[0.887, 0.49, 0.859, 3.18, 0.636, 1.73]

Give phosphorylation enrichment for each of the items listed below.
1. ENRKYYMDLKE [PURA_Y156]
2. HLVLNYGVCIC [JAK2_Y613_V617I]
3. MGGSVYFSYPD [HIKESHI_Y55]
4. RALRHYYKLNI [ETV6_Y401]
5. QSHKVYVQHLL [POR_Y604]
6. RGKDSYETSQL [SPP1_Y225]
7. GPSTPYTKSKR [SMARCC2_Y324]
8. RGDIFYTSKLW [AKR1C3_Y81_E77G]

### Response
[0.912, 2.09, 1.07, 0.606, 0.971, 0.913, 0.511, 1.59]

// for each sequence below, give its phosphorylation enrichment
1. DKATEYIQFVR [MAX_Y70_M74V_YF]
2. SHLSAYPALEG [CD5_Y465]
3. ASTDYNKRGDF [PDHA1_Y243_Y243N]
4. CKSVHYDLVFL [COL22A1_Y37]
5. GMKIVYVFVKK [DNAI2_Y5_E2K_YF]
6. QFLMKYVRSAS [ABCD1_Y337_W339R]

### Response
[0.705, 0.591, 0.599, 1.38, 1.14, 1.05]
